Data provenance: patent US6833372B2

- assay info: Pharmacokinetics in rats (jugular vein cannula, plasma LC-MS)
- Assay type: in vivo, Rat
- condition label: male, rat, plasma, po, 10 mg/kg, male rat; 10 mg/kg as 5 mg/ml solution in 10% DMSO, 20% Labrasol, 70% saline (footnote 1); read-out: MR Cmax
parameter: Cmax (nM)

> print(dat)
                           structure.smiles  experimental.result
1  COc1nc(OC)c(NC(=O)c2ccc(Cc3cc4c(cc3C)C(C)(C)OC4(C)C)o2)c(OC)n1                  100

###

- assay info: Pharmacokinetics in rats (jugular vein cannula, plasma LC-MS)
- Assay type: in vivo, Rat
- condition label: female, rat, plasma, po, 10 mg/kg, female rat; 10 mg/kg as 5 mg/ml solution in 10% DMSO, 10% cremophor, 80% saline (footnote 5); read-out: FR T1/2 hr (converted)
parameter: half-life (h)

> print(dat)
                                   compound  value.units  experimental.result
1  COc1nc(OC)c(NC(=O)c2ccc(Cc3cc4c(cc3C)C(C)(C)CCC4(C)C)o2)c(OC)n1            h                    2
2  COc1nc(NCCCN2CCOCC2)nc(OC)c1NC(=O)c1ccc(Cc2cc3c(cc2Cl)C(C)(C)CCC3(C)C)o1            h                  4.1
3  COc1nc(NCCCN(C)C)nc(OC)c1NC(=O)c1ccc(Cc2cc3c(cc2C)C(C)(C)OC3(C)C)o1            h                  4.3
4  COc1nc(Nc2ccccc2)nc(OC)c1NC(=O)c1ccc(Cc2cc3c(cc2C)C(C)(C)OC3(C)C)o1 [Example D1]            h                  1.2
5  COc1nc(OCCO)nc(OC)c1NC(=O)c1ccc(Cc2cc3c(cc2C)C(C)(C)OC3(C)C)o1            h                  2.2
6  COc1nc(NCCCN2CCOCC2)nc(OC)c1NC(=O)c1ccc(Cc2cc3c(cc2C)C(C)(C)OC3(C)C)o1            h                  1.6
7  CCN(CC)CCNc1nc(OC)c(NC(=O)c2ccc(Cc3cc4c(cc3C)C(C)(C)OC4(C)C)o2)c(OC)n1            h                  4.1

###

- assay info: In vitro metabolism: disappearance of parent compound in human liver microsomes
- Format: in vitro ADME
- condition label: 5 uM compound, 0.5 mg/ml protein, 2 mM NADPH, 30 minutes 37° C.
Lab note - cut at 60% for Human % rem. 30′: fulfilled if strictly below, not fulfilled if not.

> print(dat)
                           structure.smiles    label.value
1  COc1nc(NCCCNCCCN)nc(OC)c1NC(=O)c1ccc(Cc2cc3c(cc2C)C(C)(C)OC3(C)C)o1      fulfilled
2  COc1nc(NCCCN2CCN(CCCN)CC2)nc(OC)c1NC(=O)c1ccc(Cc2cc3c(cc2C)C(C)(C)OC3(C)C)o1  not fulfilled
3  COc1nc(NCCN2CCOCC2)nc(OC)c1NC(=O)c1ccc(Cc2cc3c(cc2C)C(C)(C)OC3(C)C)o1  not fulfilled
4  COc1nc(NCCCCN(C)C)nc(OC)c1NC(=O)c1ccc(Cc2cc3c(cc2C)C(C)(C)OC3(C)C)o1  not fulfilled
5  COc1nc(NCCN(C)C)nc(OC)c1NC(=O)c1ccc(Cc2cc3c(cc2C)C(C)(C)OC3(C)C)o1  not fulfilled
6  COc1nc(NCCNCCN)nc(OC)c1NC(=O)c1ccc(Cc2cc3c(cc2C)C(C)(C)OC3(C)C)o1  not fulfilled
7  COc1nc(OC)c(NC(=O)c2ccc(Cc3cc4c(cc3C)C(C)(C)CCC4(C)C)o2)c(OC)n1      fulfilled

###

- assay info: Pharmacokinetics in rats (jugular vein cannula, plasma LC-MS)
- Type: in vivo, Rat
- condition label: male, rat, plasma, po, 50 mg/kg, male rat; 50 mg/kg in 50 mg/ml PG (footnote 2); read-out: Tmax
parameter: Tmax (min)

> print(dat)
                                   compound  experimental.result
1  COc1nc(OCCO)nc(OC)c1NC(=O)c1ccc(Cc2cc3c(cc2C)C(C)(C)OC3(C)C)o1 [Example A3]                   30

###

- assay info: Pharmacokinetics in rats (jugular vein cannula, plasma LC-MS)
- Assay type: in vivo, Rat
- condition label: female rat; 10 mg/kg as 5 mg/ml solution in 10% DMSO, 10% cremophor, 80% saline (footnote 5); 10 mg/kg; read-out: FR Cmax
parameter: Cmax (nM)

> print(dat)
                                   molecule  parameter  value.units  experimental.result
1  COc1nc(NCCCN2CCOCC2)nc(OC)c1NC(=O)c1ccc(Cc2cc3c(cc2C)C(C)(C)OC3(C)C)o1 [Example D3]       Cmax           nM                  200

###

- target entity: rat GnRH receptor (Rattus norvegicus, UniProt P30969)
- Construct: or rat pituitaries (Pel Freez Biologicals, Rogers, Ark.) were homogenized; tissue Pel Freez Biologicals; host or cells: rat pituitaries (membrane preparation)
- Sequence (P30969 whole entry): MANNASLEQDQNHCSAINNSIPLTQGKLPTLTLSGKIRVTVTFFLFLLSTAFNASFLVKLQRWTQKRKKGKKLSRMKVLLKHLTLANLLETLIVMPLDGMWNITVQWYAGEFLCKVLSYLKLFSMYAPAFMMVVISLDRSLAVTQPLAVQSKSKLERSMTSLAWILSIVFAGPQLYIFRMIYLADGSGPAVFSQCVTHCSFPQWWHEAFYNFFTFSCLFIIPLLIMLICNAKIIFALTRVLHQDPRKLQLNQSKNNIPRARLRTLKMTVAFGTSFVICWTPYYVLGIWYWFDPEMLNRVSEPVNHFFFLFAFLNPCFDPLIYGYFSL
- assay info: Radioligand binding: inhibition of 125I-GnRH-A binding to rat GnRH receptor (rat pituitary membranes)
- condition label: read-out: Ki (nM), Inhibition Binding of 125I-GnRH-A to GnRH Receptors
Under this convention, fulfilled denotes Ki strictly below 0.8 nM and not fulfilled denotes Ki at or above 0.8 nM.

> print(dat)
                                    molecule    label.value
 1  CNCCNc1nc(OC)c(NC(=O)c2ccc(Cc3cc4c(cc3C)C(C)(C)OC4(C)C)o2)c(OC)n1 [Example D20]      fulfilled
 2  COc1nc(NCCCn2ccnc2)nc(OC)c1NC(=O)c1ccc(Cc2cc3c(cc2C)C(C)(C)OC3(C)C)o1 [Example D19]  not fulfilled
 3  COc1nc(N(C)CCCCCCO)nc(OC)c1NC(=O)c1ccc(Cc2cc3c(cc2C)C(C)(C)OC3(C)C)o1 [Example D41]  not fulfilled
 4  COc1nc(NCCN2CCCC2)nc(OC)c1NC(=O)c1ccc(Cc2cc3c(cc2C)C(C)(C)OC3(C)C)o1 [Example D5]  not fulfilled
 5  COc1nc(NCCCN2CCCCC2)nc(OC)c1NC(=O)c1ccc(Cc2cc3c(cc2C)C(C)(C)OC3(C)C)o1 [Example D22]      fulfilled
 6  COc1nc(OC)c(NC(=O)c2ccc(Cc3cc4c(cc3C)C(C)(C)OC4(C)C)o2)c(OC)n1 [Example A1]  not fulfilled
 7  CCN(CC)CCNc1nc(OC)c(NC(=O)c2ccc(Cc3cc4c(cc3C)C(C)(C)OC4(C)C)o2)c(OC)n1 [Example D7]  not fulfilled
 8  COc1nc(NCCN2CCCCC2)nc(OC)c1NC(=O)c1ccc(Cc2cc3c(cc2C)C(C)(C)OC3(C)C)o1 [Example D6]  not fulfilled
 9  COc1nc(N2CCc3nc(N(C)C)ncc3C2)nc(OC)c1NC(=O)c1ccc(Cc2cc3c(cc2C)C(C)(C)OC3(C)C)o1 [Example D59]  not fulfilled
10  COc1nc(NCc2c(F)cccc2F)nc(OC)c1NC(=O)c1ccc(Cc2cc3c(cc2C)C(C)(C)OC3(C)C)o1 [Example D73]  not fulfilled
11  COc1nc(NCCCN(C)C)nc(OC)c1NC(=O)c1ccc(Cc2cc3c(cc2C)C(C)(C)OC3(C)C)o1 [Example D9]      fulfilled
12  COc1nc(NCCCCN(C)C)nc(OC)c1NC(=O)c1ccc(Cc2cc3c(cc2C)C(C)(C)OC3(C)C)o1 [Example D11]      fulfilled
13  COc1nc(NCCC#N)nc(OC)c1NC(=O)c1ccc(Cc2cc3c(cc2C)CCCC3(C)C)o1 [Example F2]  not fulfilled
14  COCCOc1nc(OC)c(NC(=O)c2ccc(Cc3cc4c(cc3C)C(C)(C)OC4(C)C)o2)c(OC)n1 [Example A4]  not fulfilled
15  COc1nc(NCCCN2CCOCC2)nc(OC)c1NC(=O)c1ccc(Cc2cc3c(cc2C)CCCC3(C)C)o1 [Example F1]      fulfilled

###

- assay info: In vitro metabolism: disappearance of parent compound in monkey liver microsomes
- Format: in vitro ADME
- condition label: 5 uM compound, 30 minutes 37° C.
- Description: Human, rat, dog, and monkey liver microsomes were isolated by differential centrifugation. Specimens of human liver were obtained from the International Institute for the Advancement of Medicine (Scranton, Pa.). The disappearance of the parent compound was studied in a mixture containing 5 uM compound, 0.5 mg/ml microsomal protein, and 2 mM NADPH in 50 mM K phosphate buffer, pH 7.4. […] The reaction was terminated by the addition of acetonitrile and compounds analyzed by LC-MS as described above.
The following compounds are shown together with reported Monkey % rem. values.
parameter: Monkey % rem.

> print(dat)
                                   compound  experimental.result
1  COc1nc(OCCO)nc(OC)c1NC(=O)c1ccc(Cc2cc3c(cc2C)C(C)(C)OC3(C)C)o1                   7%
2  COc1nc(N(CCCN)CCCN)nc(OC)c1NC(=O)c1ccc(Cc2cc3c(cc2C)C(C)(C)OC3(C)C)o1                  66%
3  COc1nc(NCCN2CCCC2)nc(OC)c1NC(=O)c1ccc(Cc2cc3c(cc2C)C(C)(C)OC3(C)C)o1                  30%
4  COc1nc(NCCNCCN)nc(OC)c1NC(=O)c1ccc(Cc2cc3c(cc2C)C(C)(C)OC3(C)C)o1                  37%
5  COCCOc1nc(OC)c(NC(=O)c2ccc(Cc3cc4c(cc3C)CCCC4(C)C)o2)c(OC)n1 [Example E1]                   0%
6  COc1nc(OC)c(NC(=O)c2ccc(Cc3cc4c(cc3C)C(C)(C)OC4(C)C)o2)c(OC)n1                   0%
7  COc1nc(NCCN(C)C)nc(OC)c1NC(=O)c1ccc(Cc2cc3c(cc2C)C(C)(C)OC3(C)C)o1                  28%
